The following substances are shown together with reported Percent inhibition of full-length AR mRNA in C4-2B MR cells values.
tested on: total AR mRNA; test: Total (full-length) AR mRNA in C4-2B MR cells, free uptake; format: cell-based, human; settings: 0.04 μM, free uptake, 24 hrs
Oligonucleotides are written 5' to 3', each unit as a sugar letter and its base; * is a phosphorothioate linkage, no mark a phosphodiester; rarer units and linkages stand in square brackets, end groups in braces. Plain capitals give the bases only. e = 2'-O-(2-methoxyethyl) (MOE); l = locked nucleic acid (LNA); k = constrained ethyl (cEt); [5mC] = 5-methylcytosine; d = 2'-deoxy (DNA)
Kindly provide the numeric value in % only, without the unit symbol.

>  <Substance>
549458 (kG*kT*kT*dG*dA*dT*dT*dT*dA*dA*dT*dG*dG*kT*kT*kG) [compound 549458]

>  <Observed Result>
41

$$$$
>  <Substance>
554221 (ACCAAGTTTCTTCAGC; sugars from the 5' end l3 d10 l3, all phosphorothioate, methylation of C not given here) [compound 554221]

>  <Observed Result>
0

$$$$

What does the record list as Percent inhibition of full-length AR mRNA in C4-2B MR cells for 549372 (kA*kA*kG*dT*dT*dG*dT*dA*dG*dT*dA*dG*dT*k[5mC]*kG*k[5mC]) [compound 549372] ? 35

What does the record list as Percent inhibition of full-length AR mRNA in C4-2B MR cells for 549434 (k[5mC]*kT*kA*dA*dA*d[5mC]*dT*dT*d[5mC]*d[5mC]*d[5mC]*dG*dT*kG*kG*k[5mC]) [compound 549434] ? 9

What does the record list as Percent inhibition of full-length AR mRNA in C4-2B MR cells for 347526 (TCTTATGTTTCCGAACCGTT; sugars from the 5' end e5 d10 e5, backbone and methylation of C not given here) [compound 347526] ? 28
